These entries and their values trace back to patent US20210040062A1.

Target protein (sequence): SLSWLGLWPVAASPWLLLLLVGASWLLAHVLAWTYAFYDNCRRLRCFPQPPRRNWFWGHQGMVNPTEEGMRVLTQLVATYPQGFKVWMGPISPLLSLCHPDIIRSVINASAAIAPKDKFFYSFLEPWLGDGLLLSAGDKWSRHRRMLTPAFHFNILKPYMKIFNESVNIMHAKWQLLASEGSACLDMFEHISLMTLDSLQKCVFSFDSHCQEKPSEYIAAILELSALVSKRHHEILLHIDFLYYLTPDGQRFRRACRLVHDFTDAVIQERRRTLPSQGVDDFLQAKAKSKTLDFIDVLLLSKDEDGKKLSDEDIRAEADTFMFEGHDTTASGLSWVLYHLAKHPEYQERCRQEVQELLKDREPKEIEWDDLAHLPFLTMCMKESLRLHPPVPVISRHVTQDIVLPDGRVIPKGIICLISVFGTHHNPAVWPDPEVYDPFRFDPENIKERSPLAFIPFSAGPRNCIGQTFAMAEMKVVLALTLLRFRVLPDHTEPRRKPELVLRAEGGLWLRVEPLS
pIC50: −log10 of the molar value.
Reported metric: pIC50

Examples with answers:
{"Entry smiles": "CN(C)S(=O)(=O)N1CC[C@@H](COc2cnc(-c3ccn[nH]3)c(F)c2)C1", "Reported metric": "pIC50", "Numeric readout": 6.96}
{"Entry smiles": "C(=C\\c1ccc(COc2ccc(-c3ccn[nH]3)nc2)cc1)/c1ccccc1", "Reported metric": "pIC50", "Numeric readout": 8.29}
{"Entry smiles": "CC(C)OC(=O)N1CC(S(=O)(=O)N2CCC[C@@H](COc3ccc(-c4ccn[nH]4)nc3)C2)C1", "Reported metric": "pIC50", "Numeric readout": 8.20}

(I) O=C(COc1ccccc1)N1CCC[C@@H](COc2ccc(-c3ccn[nH]3)nc2)C1
(II) CC(C)OC(=O)NCCS(=O)(=O)N1CCC[C@H](COc2ccc(-c3ccn[nH]3)nc2)C1
(III) O=C(CS(=O)(=O)c1ccccc1)N1CCC[C@@H](COc2ccc(-c3ccn[nH]3)nc2)C1
Exam item: Please list the entries, largest pIC50 first. Your reply should list the labels following the order given in the request.
Marked response: II, I, III

(P) Clc1cn[nH]c1-c1ccc(OCC2CCOCC2)cn1
(Q) O=C(N1CCC(COc2ccc(-c3ccn[nH]3)nc2)CC1)N1CCCS1(=O)=O
Exam item: Which has the smaller recorded pIC50, P or Q ? API: response body contains the label of the selected item.
Marked response: Q
(Q: 6.14, P: 7.21)
